Assay: Rat study: drug plasma levels (pharmacokinetics)
Type: in vivo
Conditions: Sprague Dawley, plasma, 0.3 mg/kg, Dose 0.3, Multiple
parameter-measured: Cmax

[[record]]
smiles_representation = "O=C(O)COc1ccc2c(c1)CCN(Cc1ccc(-c3ccc(C(F)(F)F)cc3)s1)CC2"
parameter_measured = "Cmax"
measured_result = "124 ng/mL"


* * *

Assay: Rat study: drug plasma levels (pharmacokinetics)
Assay type: in vivo
Details: Dose 0.1, Multiple, n = 2
parameter-measured: Tmax (h)

[[record]]
molecule = "O=C(O)COc1ccc2c(c1)CCN(Cc1ccc(-c3ccc(C(F)(F)F)cc3)s1)CC2 [compound 7]"
parameter_measured = "Tmax"
output_unit = "h"
measured_result = 2.5

